I'd appreciate it if you could supply GI50 values for the items below.
- Tested on: Mo7e cells (SCF dependent)
- Assay: c-Kit ligand (SCF) dependent cell proliferation
- Format: cell-based
- Study Conditions: SCF 50 ng/ml, 72 hours, MTS

Entry `Cc1[nH]c(/C=C2\C(=O)Nc3ccc(F)cc32)c(C)c1C(=O)NCCCNc1ccc(C(=O)Nc2ccc(F)cc2N)cn1` , GI50 reported as 105 nM

Measured GI50, `Cc1[nH]c(/C=N/N=C2\C(=O)Nc3ccc(F)cc32)c(C)c1C(=O)NCCCNc1ccc(C(=O)Nc2ccccc2N)cn1` : > 1000 nM

So for `Cc1[nH]c(/C=N/N=C2\C(=O)Nc3ccc(F)cc32)c(C)c1C(=O)NCCNc1ccc(C(=O)Nc2ccc(F)cc2N)cn1` , the logged GI50 turned out to be > 1000 nM

The recorded GI50 for entry `Cc1[nH]c(/C=N/N=C2\C(=O)Nc3ccc(F)cc32)c(C)c1C(=O)NCCCCNc1ccc(C(=O)Nc2ccccc2N)cn1` equals > 1000 nM

Noted for `Cc1[nH]c(/C=N/N=C2\C(=O)Nc3ccc(F)cc32)c(C)c1C(=O)NCCCNc1ccc(C(=O)Nc2ccc(F)cc2N)cn1` : its GI50 reads > 1000 nM

Just so you know, measured GI50 for `Cc1[nH]c(/C=C2\C(=O)Nc3ccc(F)cc32)c(C)c1C(=O)NCCCNc1ccc(C(=O)Nc2ccccc2N)cn1` came out at 46 nM

---

- Tested on: A549
- Assay: Tumor cell proliferation (MTS), A549
- Format: cell-based
- Study Conditions: Homo sapiens, A549, 72 hours
For each entry below, report its GI50 value.

Item: `Cc1[nH]c(/C=N/N=C2\C(=O)Nc3ccc(F)cc32)c(C)c1C(=O)NCCCCNc1ccc(C(=O)Nc2ccccc2N)cn1` | System: A549 | GI50: > 60 µM

// assay A549, entry `Cc1[nH]c(/C=N/N=C2\C(=O)Nc3ccc(F)cc32)c(C)c1C(=O)NCCCNc1ccc(C(=O)Nc2ccc(F)cc2N)cn1` , GI50 value = > 60 µM

Fill in: A549 GI50 for CNC(=O)c1cc(Oc2ccc(NC(=O)Nc3ccc(Cl)c(C(F)(F)F)c3)cc2)ccn1 [Sorafinib, reference compound] = 13.8 µM

Item `Cc1[nH]c(/C=N/N=C2\C(=O)Nc3ccc(F)cc32)c(C)c1C(=O)NCCCNc1ccc(C(=O)Nc2ccccc2N)cn1` was tested on A549; the reported GI50 is > 60 µM

Known value: A549 GI50 of the compound CCN(CC)CCNC(=O)c1c(C)[nH]c(/C=C2\C(=O)Nc3ccc(F)cc32)c1C [Sutent, reference compound] equals 14.7 µM

Tested on A549: `Cc1[nH]c(/C=C2\C(=O)Nc3ccc(F)cc32)c(C)c1C(=O)NCCNc1ccc(C(=O)Nc2ccc(F)cc2N)cn1` . Observed GI50: > 60 µM

The compound `Cc1[nH]c(/C=C2\C(=O)Nc3ccc(F)cc32)c(C)c1C(=O)NCCCCNc1ccc(C(=O)Nc2ccccc2N)cn1` , tested on A549, showed GI50 of > 60 µM

---

- System: U937
- Assay: Tumor cell proliferation (MTS), U937
- Format: cell-based
- Study Conditions: Homo sapiens, U-937, U937, 72 hours
What GI50 was measured for each of the following?

Form field GI50, entry CCN(CC)CCNC(=O)c1c(C)[nH]c(/C=C2\C(=O)Nc3ccc(F)cc32)c1C [Sutent, reference compound] : 8.28 µM

The molecule listed as Cc1[nH]c(/C=N/N=C2\C(=O)Nc3ccc(F)cc32)c(C)c1C(=O)NCCNc1ccc(C(=O)Nc2ccccc2N)cn1 [Example 4] has a reported GI50 of > 60 µM

Summary for this molecule, Cc1[nH]c(/C=C2\C(=O)Nc3ccc(F)cc32)c(C)c1C(=O)NCCNc1ccc(C(=O)Nc2ccc(F)cc2N)cn1 [Example 13] : GI50 is > 60 µM

GI50 reported for this molecule Cc1[nH]c(/C=C2\C(=O)Nc3ccc(F)cc32)c(C)c1C(=O)NCCCNc1ccc(C(=O)Nc2ccccc2N)cn1 [Example 6] : > 60 µM
